target: human Thyroid Receptor alpha (THRa1), THRA (gene 7067) (UniProt P10827); assay: ATG_THRa1_TRANS: Attagene TRANS-FACTORIAL HepG2 Assay for human Thyroid Receptor alpha (THRa1) (AID 2283014)
Sequence (P10827 whole entry, looked up): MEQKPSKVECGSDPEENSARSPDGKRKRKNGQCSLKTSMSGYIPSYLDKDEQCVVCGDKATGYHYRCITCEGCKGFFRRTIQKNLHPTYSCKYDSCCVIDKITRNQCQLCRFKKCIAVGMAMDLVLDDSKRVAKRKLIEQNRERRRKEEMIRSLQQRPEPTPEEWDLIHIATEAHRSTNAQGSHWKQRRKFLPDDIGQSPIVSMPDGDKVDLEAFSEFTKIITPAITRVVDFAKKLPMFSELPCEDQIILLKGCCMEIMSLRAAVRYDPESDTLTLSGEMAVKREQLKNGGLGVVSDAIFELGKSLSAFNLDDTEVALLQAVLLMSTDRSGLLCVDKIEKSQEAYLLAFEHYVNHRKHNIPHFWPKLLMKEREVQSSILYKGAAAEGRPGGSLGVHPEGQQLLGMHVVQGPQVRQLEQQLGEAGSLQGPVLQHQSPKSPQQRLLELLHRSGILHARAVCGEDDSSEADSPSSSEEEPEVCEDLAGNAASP
Inconclusive results are not listed. The source made the active and inactive calls. How the source made its calls: active means hit-call score of the fitted dose curve at least 0.9, where 1 is the maximum; inconclusive means response in the unintended direction; inactive means score below 0.9.
measure_name: outcome

Solved cases (5 shown):
smiles_string: CCCCCCCCCCCO
outcome: inactive
--
smiles_string: O=C1CCC(C2CCCCC2)CC1
outcome: inactive
--
smiles_string: CCCCCCCCOC(=O)c1cc(O)c(O)c(O)c1
outcome: inactive
--
smiles_string: CCCCCc1ccc(N)cc1
outcome: inactive
--
smiles_string: CCCOC(=O)c1cc(O)c(O)c(O)c1
outcome: inactive

Ask | Could you share which outcome value was measured for CC(C)(c1cc(Br)c(O)c(Br)c1)c1cc(Br)c(O)c(Br)c1 ?
Reply | inactive

Ask | Could you share which outcome value was measured for O=C(OCCCCCCOC(=O)c1ccccc1)c1ccccc1 ?
Reply | inactive
